Recorded koff values for a group of binders are listed next.
assay_system: T1, recombinant human IL1RAP ECD (human, UniProt Q9NPH3 21-367)
T1 construct: His-tagged; also called hIL1RAP-ECD; rhuIL1RAP
T1 sequence: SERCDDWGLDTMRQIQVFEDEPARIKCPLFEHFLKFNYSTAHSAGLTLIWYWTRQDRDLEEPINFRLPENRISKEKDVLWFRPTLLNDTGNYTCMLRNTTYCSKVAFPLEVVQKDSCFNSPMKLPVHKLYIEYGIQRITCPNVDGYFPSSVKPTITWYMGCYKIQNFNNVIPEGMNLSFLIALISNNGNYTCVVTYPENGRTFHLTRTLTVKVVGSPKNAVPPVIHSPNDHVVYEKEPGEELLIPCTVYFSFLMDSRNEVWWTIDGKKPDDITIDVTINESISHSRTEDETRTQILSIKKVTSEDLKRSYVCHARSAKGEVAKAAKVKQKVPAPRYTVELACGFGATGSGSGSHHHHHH
assay_overview: SPR (ProteOn)
observation_type: koff (s⁻¹)

>>> observed_measurement("IAPB61, 25D12 (hybridoma mAb, unpurified) (antibody, V domains shown, OmniRat hybridoma product (rat constant region)) VH: QLQLQESGPGLVKPSETLSLTCTVSGVSISSSTYYWGWLRQPPGMGLEWTGSIYFTGNTYYNPSLKSRVTISVDTSRNQFSLKLSSVTAADTAVYYCGSLFGDYGYFDYWGQGTLVTVSS VL: EIVMTQSPATLSVPPGERATLSCRASQFISSNLAWYQQKPGQAPRLLIYGASTRATGIPARFSGSGSGTDFTLTISSLQSEDFAVYYCQQYNNWPSTFGPGTKVDIK")
0.0142
>>> observed_measurement("IAPB23 (antibody, human IgG4 S228P, kappa, F234A L235A, V domains shown, IgG4-PAA; whole chains) VH: EVQLLESGGGLVQPGGSLRLSCAASGFTFSNYWMNWVRQAPGKGLEWVSAIRYDGGSKYYADSVKGRFTISRDNSKNTLYLQMNSLRAEDTAVYYCAKDAYPPYSFDYWGQGTLVTVSS VL: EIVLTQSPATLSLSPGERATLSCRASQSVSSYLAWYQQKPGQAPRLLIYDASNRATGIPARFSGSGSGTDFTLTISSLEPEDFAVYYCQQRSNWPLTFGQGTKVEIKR")
0.00149
>>> observed_measurement("IAPB55, 22A09 (hybridoma mAb, unpurified) (antibody, V domains shown, OmniRat hybridoma product (rat constant region)) VH: QLQLQESGPGLVKPSETLSLTCTVSGVSISSSTYYWGWLRQPPGMGLEWTGSIYFTGNTYYNPSLKSRVTISVDTSRNQFSLKLSSVTAADTAVYYCGSLFGDYGYFDYWGQGTLVTVSS VL: EIVMTQSPATLSVSPGERATLSCRASQFISSNLAWYQQKPGQAPRLLIYGASTRATGIPARFSGSGSGTDFTLTISSLQSEDFAVYYCQQYNNWPFTFGPGTKVDIK")
0.000747
>>> observed_measurement("IAPB47 (antibody, human IgG4 S228P, kappa, F234A L235A, V domains shown, IgG4-PAA; whole chains) VH: EVQLVQSGAEVKKPGESLKISCKGSGYSFTSYWIGWVRQMPGKGLEWMGIIYPSDSYTRYSPSFQGQVTISADKSISTAYLQWSSLKASDTAMYYCARRNSAENYADLDYWGQGTLVTVSS VL: EIVLTQSPGTLSLSPGERATLSCRASQSISNDLNWYQQKPGKAPKLLIYYASSLQSGVPSRFSGSGSGTDFTLTINSLQPEDFATYYCQQSFTAPLTFGQGTKVEIKR")
0.000811
>>> observed_measurement("IAPB57, 5G08 (hybridoma mAb, unpurified) (antibody, V domains shown, OmniRat hybridoma product (rat constant region)) VH: QLQLQESGPGLVKPSETLSLTCTVSGGSISSSTYYWGWIRQPPGKGLEWIGSIYFTGSTDYNPSLKSRVSISVDTSKNQFSLKLSSVTAADTAVYYCAKEDDSSGYYSFDYWGQGNLVTVSS VL: DIQLTQSPSFLSASVGDRVTITCRASQGISSYLAWYQQKPGKAPKLLIYAASTLQSGVPSRFSGSGSGTEFTLTISSLQPEDFATYYCQQVNSYPLTFGGGTKVEIK")
0.000129
>>> observed_measurement("IAPB04 (antibody, human IgG4 S228P, kappa, F234A L235A, V domains shown, IgG4-PAA; also called IAPB4; phage hit B4) VH: QVQLVQSGAEVKKPGSSVKVSCKASGGTFSSYAISWVRQAPGQGLEWMGGISAIFGTANYAQKFQGRVTITADESTSTAYMELSSLRSEDTAVYYCARHLHNGIHLDYWGQGTLVTVSS VL: EIVLTQSPATLSLSPGERATLSCRASQSVSNFLAWYQQKPGQAPRLLIYGASNRATGIPARFSGSGSGTDFTLTISSLEPEDFAVYYCQQGKHWPWTFGQGTKVEIKR")
0.00144

Entry source: patent US20190270826A1
